This collection of values is drawn from PubChem BioAssay (NCATS).

# ASSAY COMMENT: Quantitative highthroughput screen to assess conditional lethalithy of SEM cells grown in RPMI1640 with unreated serum (RPMI+s) (AID 1963883); note: nearly all actives have a fitted effect of over 35% in size;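 for viability: 100% = DMSO wells and 0% = empty wells without cells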
# SETTINGS: SEM B-ALL cells, CellTiter-Glo viability, 48 h; series mostly up to 45.8 µM
Inconclusive results are not listed. Activity calls are given as the source filed them. Calls come from the whole dose curve; as a rule, active = well fitted cell-killing curve with a large enough effect; inconclusive = small, poorly fitted or top-dose-only effect, or effect the other way; inactive = no such curve, though single readings can be large or run the other way.
Classes used: TRUE for active, FALSE for inactive

[
  {
    "COMPOUND": "CCc1nc(N)nc(N)c1-c1ccc(Cl)cc1",
    "CATEGORY LABEL": "FALSE"
  },
  {
    "COMPOUND": "Cc1c(NC(=O)OC[C@@H]2COCCN2)cn2ncnc(Nc3ccc4c(cnn4Cc4cccc(F)c4)c3)c12",
    "CATEGORY LABEL": "TRUE"
  },
  {
    "COMPOUND": "Cc1ccc(F)c(NC(=O)Nc2ccc(-c3cccc4[nH]nc(N)c34)cc2)c1",
    "CATEGORY LABEL": "TRUE"
  },
  {
    "COMPOUND": "Nc1ccccc1NC(=O)c1ccc(CNC(=O)OCc2cccnc2)cc1",
    "CATEGORY LABEL": "TRUE"
  },
  {
    "COMPOUND": "C[C@H]1[C@H](NC(=O)C(=NOC(C)(C)C(=O)O)c2csc(N)n2)C(=O)N1S(=O)(=O)O",
    "CATEGORY LABEL": "FALSE"
  },
  {
    "COMPOUND": "O=C(c1ccc(F)cc1)N1CCC[C@H](c2nc(-c3ccc(F)cc3)no2)C1",
    "CATEGORY LABEL": "FALSE"
  },
  {
    "COMPOUND": "C=CCNc1c(O)cc2c(O)c1C[C@@H](C)C[C@H](OC)[C@@H](O)[C@@H](C)C=C(C)[C@H](OC(N)=O)[C@@H](OC)C=CC=C(C)C(=O)N2",
    "CATEGORY LABEL": "TRUE"
  },
  {
    "COMPOUND": "OCCNC1CCCc2c1[nH]c1ccc(-c3ccccc3)cc21 (centres undefined)",
    "CATEGORY LABEL": "TRUE"
  },
  {
    "COMPOUND": "CC1(C)CCC(CN2CCN(c3ccc(C(=O)NS(=O)(=O)c4ccc(NCC5CCOCC5)c([N+](=O)[O-])c4)c(Oc4cnc5[nH]ccc5c4)c3)CC2)=C(c2ccc(Cl)cc2)C1",
    "CATEGORY LABEL": "TRUE"
  }
]

###

# ASSAY COMMENT: Cellular viability qHTS for adrenocortical cancer (ACC) cell line NCI-H295R (AID 1963990); note: nearly all actives have a fitted effect of over 60% in size
# SETTINGS: CellTiter-Glo ATP luminescence, 48 h; series mostly up to 46.1 µM
Records with an inconclusive call do not appear. The source made the active and inactive calls. Calls come from the whole dose curve; as a rule, active = well fitted cell-killing curve with a large enough effect; inconclusive = small, poorly fitted or top-dose-only effect; inactive = flat fitted curve, though single readings scatter.
Classes used: active, inactive

[
  {
    "COMPOUND": "COc1cc2nccc(Oc3ccc(NC(=O)C4(C(=O)Nc5ccc(F)cc5)CC4)cc3)c2cc1OC",
    "CATEGORY LABEL": "active"
  },
  {
    "COMPOUND": "Cc1sccc1Br",
    "CATEGORY LABEL": "inactive"
  },
  {
    "COMPOUND": "Cn1c(NC[C@@H](N)Cc2ccccc2)nc(-c2ccncc2)c(-c2ccc3ccccc3c2)c1=O",
    "CATEGORY LABEL": "active"
  },
  {
    "COMPOUND": "COC(=O)N[C@@H](C)CNc1nccc(-c2cn(C(C)C)nc2-c2cc(Cl)cc(NS(C)(=O)=O)c2F)n1",
    "CATEGORY LABEL": "inactive"
  },
  {
    "COMPOUND": "CN(C)Cc1ccc(-c2nc3cccc4c3n2CCNC4=O)cc1",
    "CATEGORY LABEL": "active"
  },
  {
    "COMPOUND": "CC1(C(=O)O)CCC2(C)CCC3(C)C(=CC(=O)C4C5(C)CCC(OC6OC(C(=O)O)C(O)C(O)C6OC6OC(C(=O)O)C(O)C(O)C6O)C(C)(C)C5CCC43C)C2C1 (stereo not given)",
    "CATEGORY LABEL": "inactive"
  },
  {
    "COMPOUND": "CC(C)COCC(CN(Cc1ccccc1)c1ccccc1)N1CCCC1 (stereo not given)",
    "CATEGORY LABEL": "active"
  },
  {
    "COMPOUND": "COC(=O)/C=C(/C)N",
    "CATEGORY LABEL": "inactive"
  },
  {
    "COMPOUND": "COc1ccc2c(c1)c(CC(=O)OC/C=C(\\C)CC/C=C(\\C)CCC=C(C)C)c(C)n2C(=O)c1ccc(Cl)cc1",
    "CATEGORY LABEL": "inactive"
  },
  {
    "COMPOUND": "CN1CCCN(C(=O)c2cccc(-c3ccc(/C=C4/C(=O)Nc5ccc(Cl)cc54)o3)c2)CC1",
    "CATEGORY LABEL": "active"
  },
  {
    "COMPOUND": "N[C@@H](CCC(=O)O)C(=O)N[C@@H](Cc1c[nH]c2ccccc12)C(=O)O",
    "CATEGORY LABEL": "inactive"
  },
  {
    "COMPOUND": "CCOC(=O)c1ccc(OCCN2C[C@H](O)[C@@H](O)[C@H](O)[C@H]2CO)cc1",
    "CATEGORY LABEL": "inactive"
  },
  {
    "COMPOUND": "Cc1cnc(Nc2cccc(CN3CCOCC3)c2)nc1Nc1cccc(S(=O)(=O)NC(C)(C)C)c1",
    "CATEGORY LABEL": "inactive"
  },
  {
    "COMPOUND": "Cc1ccc(C(=O)Nc2cccc(C(F)(F)F)c2)cc1Nc1nc(-c2cccnc2)nc2c1cnn2C",
    "CATEGORY LABEL": "active"
  },
  {
    "COMPOUND": "Cc1cnc(Nc2ccc(N3CCN(C)CC3)cc2)nc1Nc1cccc(S(=O)(=O)NC(C)(C)C)c1",
    "CATEGORY LABEL": "active"
  },
  {
    "COMPOUND": "Nc1ncnc(Nc2ccc(OCc3ccccc3)c(Cl)c2)c1/C=N/OCCN1CCOCC1",
    "CATEGORY LABEL": "active"
  },
  {
    "COMPOUND": "O=C1CC(c2c[nH]c3ccc(F)cc23)C(=O)N1 (stereo not given)",
    "CATEGORY LABEL": "inactive"
  },
  {
    "COMPOUND": "Cc1cccc(OCC(O)CNC(C)(C)C)c1C (stereo not given)",
    "CATEGORY LABEL": "inactive"
  },
  {
    "COMPOUND": "O=C(O)Cc1ccc(-c2ccccc2)cc1",
    "CATEGORY LABEL": "inactive"
  },
  {
    "COMPOUND": "Cc1ccc(/C=N/n2c(-c3ccccc3)csc2=S)cc1",
    "CATEGORY LABEL": "inactive"
  }
]

###

# ASSAY COMMENT: Cellular viability qHTS for adrenocortical cancer (ACC) cell line NCI-H295R (AID 1963990); note: nearly all actives have a fitted effect of over 60% in size
# SETTINGS: CellTiter-Glo ATP luminescence, 48 h; series mostly up to 46.1 µM
Results filed as inconclusive are left out. Calls of active or inactive are those of the source. Calls follow the shape of the dose curve; as a rule, active = well fitted cell-killing curve with a large enough effect; inconclusive = small, poorly fitted or top-dose-only effect; inactive = flat fitted curve, though single readings scatter.
Classes used: true (1) = active, false (0) = inactive

[
  {
    "COMPOUND": "OCC(O)CN1CCN(c2ccccc2)CC1 (stereo not given)",
    "CATEGORY LABEL": "false (0)"
  },
  {
    "COMPOUND": "COc1cc(C(=O)NC(N)=Nc2ccc(C)c(NC(=O)c3ccc(-c4ccccc4)cc3)c2)cc(OC)c1OC",
    "CATEGORY LABEL": "true (1)"
  },
  {
    "COMPOUND": "Oc1cc(-c2nc(-c3ccccc3)[nH]c2-c2ccncc2)ccc1Cl",
    "CATEGORY LABEL": "true (1)"
  },
  {
    "COMPOUND": "Nc1ccc(F)cc1NC(=O)c1ccc(CNC(=O)/C=C/c2cccnc2)cc1",
    "CATEGORY LABEL": "true (1)"
  },
  {
    "COMPOUND": "COc1cc2c(Nc3ccc(NC(=O)c4ccccc4)cc3)ncnc2cc1OCCCN1CCOCC1",
    "CATEGORY LABEL": "true (1)"
  }
]

###

# ASSAY COMMENT: Quantitative highthroughput screen to assess conditional lethalithy of SEM cells grown in RPMI1640 with dialyzed fetal bovine serum (RPMI+ds) (AID 1963884); note: nearly all actives have a fitted effect of over 35% in size; note: potency is the fitted concentration of half-maximal effect;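 for viability: 100% = DMSO control wells and 0% = empty wells without cells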
# SETTINGS: SEM B-ALL cells, RPMI+dialyzed FBS, CellTiter-Glo viability, 48 h; series mostly up to 45.8 µM
Records with an inconclusive call do not appear. Activity calls are given as the source filed them. The call rests on the fitted dose curve; in most records, active means well fitted cell-killing curve with a large enough effect; inconclusive means small, poorly fitted or top-dose-only effect, or effect the other way; inactive means no such curve, though single readings can be large or run the other way.

[
  {
    "COMPOUND": "C[N+](C)([O-])CCNc1ccc(NCC[N+](C)(C)[O-])c2c1C(=O)c1c(O)ccc(O)c1C2=O",
    "Potency": "743 nM (active)"
  },
  {
    "COMPOUND": "Cc1ccc(S(=O)(=O)Nc2nc3ccccc3nc2Nc2ccc3nsnc3c2)cc1",
    "Potency": "4070 nM (active)"
  },
  {
    "COMPOUND": "CC(C)CC(=O)Nc1n[nH]c2c1CN(C(=O)C1CCN(C)CC1)C2(C)C",
    "Potency": "4690 nM (active)"
  },
  {
    "COMPOUND": "COc1cc2ncn(-c3cc(OCc4ccccc4S(C)(=O)=O)c(C#N)s3)c2cc1OC",
    "Potency": "inactive"
  },
  {
    "COMPOUND": "C=C1C(=O)O[C@H]2[C@@H]1CCC(C)=CCC[C@@]1(C)O[C@@H]21",
    "Potency": "1480 nM (active)"
  },
  {
    "COMPOUND": "CC[C@@]1([C@@H]2O[C@@H]([C@H]3O[C@@](O)(CO)[C@H](C)C[C@H]3C)C[C@H]2C)CC[C@H]([C@]2(C)CC[C@]3(C[C@H](O)[C@@H](C)[C@@H]([C@@H](C)[C@@H](OC)[C@H](C)C(=O)O)O3)O2)O1",
    "Potency": "1150 nM (active)"
  },
  {
    "COMPOUND": "Cn1cc(C[C@@H](N)C(=O)O)c2ccccc21",
    "Potency": "inactive"
  },
  {
    "COMPOUND": "CC1COc2c(N3CCN(C)CC3)c(F)cc3c(=O)c(C(=O)O)cn1c23 (centres undefined)",
    "Potency": "inactive"
  },
  {
    "COMPOUND": "C=C1C(=O)OC2C=C(C)CCC=C(C)CCC12 (centres undefined)",
    "Potency": "23500 nM (active)"
  }
]
